Target: unphosphorylated-BTK kinase domain (UP-BTK), GST-tagged human BTK (389-659aa) (Homo sapiens (Human), UniProt Q06187)
Sequence (Q06187 389-659): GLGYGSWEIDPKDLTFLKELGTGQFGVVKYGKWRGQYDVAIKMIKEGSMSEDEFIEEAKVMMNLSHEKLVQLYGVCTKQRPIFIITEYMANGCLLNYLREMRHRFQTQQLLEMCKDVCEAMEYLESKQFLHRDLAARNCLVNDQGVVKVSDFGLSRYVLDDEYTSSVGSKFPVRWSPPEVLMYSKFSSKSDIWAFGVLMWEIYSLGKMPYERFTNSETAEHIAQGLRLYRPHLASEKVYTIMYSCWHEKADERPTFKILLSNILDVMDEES
Assay: BTK kinase Lanthascreen binding assay
Settings: pIC50 = negative log of the IC50 in molar; 60 minutes incubation, 50 nM Tracer 236
Threshold check on BTK_I_binding pIC50: at or above 7 gives Y, strictly below gives N.

The following compounds have reported results that may help.
Compound: COC[C@H](O)C(=O)N1CCC[C@@H](NC(=O)c2sc3nccc4c3c2NC(=O)N4c2ccc(Oc3ccccc3)cc2C)C1 [Example 122]
Answer Label: Y

Compound: C#CC(=O)N1CCC[C@@H](NC(=O)c2sc3nccc4c3c2NC(=O)N4c2ccc(Oc3ccccc3)cc2C)C1 (single isomer, unassigned) [Example 46]
Answer Label: Y

Compound: Cc1cc(Oc2ccccc2)ccc1N1C(=O)Nc2c(C(=O)N[C@@H]3CCCN(C(=O)CN(C)C)C3)sc3nccc1c23 [Example 78]
Answer Label: Y

Compound: Cc1cc(Oc2ccccc2)ccc1N1C(=O)Nc2c(C(=O)NC3CNC(=O)C3)sc3nccc1c23 (stereo not shown) [Example 202]
Answer Label: N

Compound: Cc1c(N2C(=O)Nc3c(C(=O)N[C@@H]4CCCN(C(=O)CO)C4)sc4nccc2c34)ccc(Oc2ccccc2)c1F [Example 114]
Answer Label: Y

# evaluate next
Assess whether reported BTK_I_binding pIC50 for CC(C)=C(C#N)C(=O)N1CCC[C@@H](NC(=O)c2sc3nccc4c3c2NC(=O)N4c2ccc(Oc3ccccc3)cc2C)C1 [Example 140] sits at 7 or higher.
N
